# System: Trypanosoma cruzi
# assay.comment: Trypanosoma cruzi phosphomannomutase and mannose-1-phosphate guanylyltransferase assay
# Format: functional
# Set-up: scale not given: direction of the effect not stated beside the values
# conditions: 10 µM
Reported values of Percent Effect for individual entries

Below, 3 compounds whose answers are already recorded.
Prompt: Give Percent Effect for the following compound: O=C(NCC1CC1)C1CN(C(=O)c2cccs2)CC12CCOCC2 (stereo not given)
Completion: 0.579%

Prompt: Identify measured Percent Effect corresponding to `CCOc1ccnc(N2CCN(C(=O)C(C)(C)C#N)CC2)n1`
Completion: -4.39%

Prompt: Report Percent Effect for Fc1ccc(CN2CCCC(Cn3cncn3)C2)c2ncccc12 (stereo not given)
Completion: 1.67%

Others:
Prompt: Supply measured Percent Effect of Cc1occc1C(=O)N1CCC2(CC1)CC(c1cccnc1)C(=O)N2C (stereo not given) in your reply.
Completion: -1.74%

Prompt: Retrieve Percent Effect measured for `O=C(c1coc(COc2cccc(F)c2)n1)N1CC[C@H](O)[C@@H](O)C1` and print it.
Completion: 1.93%

====

# target.or.test.system: Chromo domain-containing protein 1 (Saccharomyces cerevisiae (strain ATCC 204508 / S288c) (Baker's yeast)) (UniProt P32657)
# Sequence (P32657 whole entry, the tested form may be a part): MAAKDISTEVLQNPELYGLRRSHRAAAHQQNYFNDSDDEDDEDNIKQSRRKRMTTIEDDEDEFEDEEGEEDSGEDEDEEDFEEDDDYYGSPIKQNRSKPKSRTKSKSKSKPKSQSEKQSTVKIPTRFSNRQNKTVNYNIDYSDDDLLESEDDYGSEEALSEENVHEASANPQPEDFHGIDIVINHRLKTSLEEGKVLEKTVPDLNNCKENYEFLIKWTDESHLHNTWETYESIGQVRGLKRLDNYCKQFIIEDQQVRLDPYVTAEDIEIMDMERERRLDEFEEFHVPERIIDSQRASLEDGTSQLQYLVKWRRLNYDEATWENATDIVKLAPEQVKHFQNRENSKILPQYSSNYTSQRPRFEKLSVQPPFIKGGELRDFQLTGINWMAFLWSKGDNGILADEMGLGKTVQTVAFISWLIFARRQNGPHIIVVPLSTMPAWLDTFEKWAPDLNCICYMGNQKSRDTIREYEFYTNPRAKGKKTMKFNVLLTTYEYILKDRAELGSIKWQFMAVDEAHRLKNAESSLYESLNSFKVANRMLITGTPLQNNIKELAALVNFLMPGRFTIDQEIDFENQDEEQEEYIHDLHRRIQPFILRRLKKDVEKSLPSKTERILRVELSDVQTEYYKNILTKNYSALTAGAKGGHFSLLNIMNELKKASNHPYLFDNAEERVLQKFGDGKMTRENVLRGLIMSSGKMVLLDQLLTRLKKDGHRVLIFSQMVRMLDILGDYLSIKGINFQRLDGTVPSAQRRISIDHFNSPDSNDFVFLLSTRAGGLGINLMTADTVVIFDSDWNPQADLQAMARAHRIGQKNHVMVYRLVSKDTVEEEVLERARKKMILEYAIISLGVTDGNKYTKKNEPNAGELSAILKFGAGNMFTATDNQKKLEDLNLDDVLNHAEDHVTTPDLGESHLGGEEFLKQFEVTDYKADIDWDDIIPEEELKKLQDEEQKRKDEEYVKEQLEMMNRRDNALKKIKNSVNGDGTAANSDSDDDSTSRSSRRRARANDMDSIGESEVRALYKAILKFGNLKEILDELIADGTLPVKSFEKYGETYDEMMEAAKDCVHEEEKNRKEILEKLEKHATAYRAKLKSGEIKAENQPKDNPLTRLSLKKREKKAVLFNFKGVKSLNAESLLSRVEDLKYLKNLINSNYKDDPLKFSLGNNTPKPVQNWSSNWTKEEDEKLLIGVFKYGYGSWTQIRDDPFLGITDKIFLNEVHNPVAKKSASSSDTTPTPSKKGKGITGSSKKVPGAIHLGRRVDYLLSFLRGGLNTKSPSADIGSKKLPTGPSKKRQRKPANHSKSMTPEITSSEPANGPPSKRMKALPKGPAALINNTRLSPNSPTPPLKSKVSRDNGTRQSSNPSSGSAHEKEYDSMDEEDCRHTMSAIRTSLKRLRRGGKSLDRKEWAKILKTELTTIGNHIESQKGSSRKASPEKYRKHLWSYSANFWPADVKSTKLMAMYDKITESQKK
# assay.comment: ScCHD-1 Enzyme Inhibition Assay; further: in the data most compounds retested in dose-response had high values
# Format: functional
# Design: scale not given: direction of the effect not stated beside the values
# conditions: 30 µM
quantity: Percent Effect (%)
Use % as the unit, but write only the number.

Prompt: Look up and state reported Percent Effect for `Cc1cc(C(=O)NCCn2nc3ccccn3c2=O)[nH]n1`
Completion: -7.79

Prompt: Consider the molecule CCN(Cc1ccccc1)C(=O)CN1CCCC(Cn2cncn2)C1 (centres undefined) . State its measured Percent Effect.
Completion: -6.71

Prompt: Give Percent Effect for the following molecule: `COc1cccc2c1ccn2CCNC(=O)C(C)C`
Completion: -3.78

Prompt: Supply measured Percent Effect of `O=S(=O)(Nc1cnn(C2CCOCC2)c1)c1ccc(F)c(F)c1` in your reply.
Completion: -2.49

Prompt: For the molecule COc1cccc2c1OCC(CNC(=O)CNC(N)=O)C2 (centres undefined) , report Percent Effect.
Completion: -9.37

Prompt: Give recorded Percent Effect. `CC(=O)c1ccccc1C(=O)NCC1(CO)CC1`
Completion: -0.424

Prompt: Output measured Percent Effect for this item: COCCOc1cccc(C(=O)N2CCCC(n3cccn3)C2)c1 (centres undefined)
Completion: 3.61

Prompt: Recall and state the measured Percent Effect for CCC(NC(N)=O)c1ccccc1OCC(=O)N1CCCC1 (centres undefined) .
Completion: -6

Prompt: Fill in reported Percent Effect for this entry: `Cc1ccc(S(=O)(=O)N2CCOc3ccccc32)cc1C(N)=O`
Completion: 17.3

Prompt: Find the measured Percent Effect of `O=C(Nc1ccccc1F)N1CCN(Cc2noc(C3CC3)n2)CC1` and report it.
Completion: -23.3

Next:
Prompt: Name the recorded Percent Effect of the molecule listed here: CC(C)c1cc(CNC(=O)N2CCC(Cc3cnn(C)c3)C2)on1 (centres undefined)
Completion: -5.54

Prompt: Hello, please tell me recorded Percent Effect for this one: Cc1ccc(C(O)CNCCn2cccn2)cc1C (centres undefined)
Completion: -8.09

Prompt: Give the value of Percent Effect reported for the following: CCc1nc(C2CCCN2CCCS(=O)(=O)c2ccccc2)no1 (centres undefined)
Completion: -3.94

Prompt: Write down Percent Effect measured for item CC(=O)N1N=C(c2ccccc2)OC1C(=O)NCCC1=CCCCC1 (centres undefined)
Completion: -32.1

Prompt: Provide measured Percent Effect value, entry: Cn1cnc2c1C(COCC1CC1)CN(Cc1ccc3c(c1)OCO3)C2 (centres undefined)
Completion: -2.11

Prompt: For the molecule `CC[C@H](C)[C@H](NC(=O)Cc1csc(-c2cccc(Cl)c2)n1)C(=O)O` , report Percent Effect.
Completion: -5.96
